Biological target: T1, Dimeric fibrinogen-like domain of monkey (Macca fascicularis) Ang-2 conjugated to human IgG1 (monkey (Macca fascicularis))
T1 construct: also called Dimeric Monkey Ang-2FD; Monkey Ang-2FD-hFc
T1 sequence (chain, as listed by the source limits assumed): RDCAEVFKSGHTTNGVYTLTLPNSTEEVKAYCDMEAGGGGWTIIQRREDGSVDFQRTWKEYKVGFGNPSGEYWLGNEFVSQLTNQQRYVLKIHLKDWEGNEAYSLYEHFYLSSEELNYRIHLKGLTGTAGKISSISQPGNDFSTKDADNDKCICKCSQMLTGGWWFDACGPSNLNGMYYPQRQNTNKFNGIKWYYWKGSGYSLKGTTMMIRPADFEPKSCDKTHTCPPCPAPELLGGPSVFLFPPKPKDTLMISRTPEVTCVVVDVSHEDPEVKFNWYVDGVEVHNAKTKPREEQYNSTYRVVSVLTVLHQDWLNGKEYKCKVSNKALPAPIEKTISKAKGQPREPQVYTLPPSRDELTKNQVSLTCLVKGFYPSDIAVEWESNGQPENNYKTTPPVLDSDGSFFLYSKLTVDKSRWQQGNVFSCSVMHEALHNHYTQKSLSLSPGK
Experiment: SPR, antibody captured, room temp
Think of 40 min as a floor: if T1/2 stands on it or above, it is yes (1); beneath it, no (0).

binder: H2M742N (antibody, V domains shown) VH: DVQLLESGGDLVQPGGSLRLSCEASGFTFRNYVMIWVRQAPGKGLEWVSGISNSGGTTHYTDSVKGRFTISRDNSKNTLYLQINSLRAEDTAVYYCAKGYLDTSLIEGNWFDPWGQGTLVTVSS VL: NIVMTQSPLSLPVTPGEPASISCRSSQSLLHSNGFNYLNWFLQKPGQSPQLLIYLGSNRASGVPDKFSGSGSGTDFTLNINRVEAEDVGIYFCMQTLQTPLTFGGGTKVEIK
class: no (0)

binder: H2M743N (antibody, V domains shown) VH: EVQLLESGGGLVQPGGSLRLSCAASGFTFRKYAMSWVRQAPGKGLEWVSVISVSGGNTYYADSVKGRFTISRDNSKNTLYLQLNSLRAEDTAVYYCAKDLTDIVLMVYVDYWGQGTLVTVSS VL: DIQMTQSPSSVSASVGDRVTITCRASQDIDRWLAWYQQKPGKAPKLLIYAASSLQSGVPSRFSGSGSGTDFTLTISTLQPEDFATYYCQQANSLPFTFGGGTKVEIK
class: yes (1)

binder: H2M750N (antibody, V domains shown) VH: QVKLVESGGGVVQPGRSLRVSCAASGFTFSSYGMHWVRQAPGKGLEWLAIIWYDGDNKYYSDSVKGRFTISRDNSKNTLYLQMNSLRAEDTAEYYCVRDASIASRFLDYWGQGTLVTVSS VL: DIQMTQSPSSLSASIGDRVTITCRATQDINNYLAWFQQKPGKAPKSLIYATSNLQSGVPSKFSGSGSGTDYTLTISSLQPEDFSTYYCQQYHSYPLTFGGGTKVEIK
class: no (0)

binder: H2M744N (antibody, V domains shown) VH: QVQLVQSGVEVKKPGASVKVSCKTSGYTFSNNGFSWVRQAPGQGLEWLGWISGYNGNTNYAQKFQGRVTMTTDTSTSTAYMELRTLRSDDTAVYYCARDQDYSNFHWLDPWGQGTLVTVAS VL: DIQMTQSPSSVSASVGDRVIITCRASQGLSSWLAWYQQKPGTAPKLLIHSASSLQTGVPSRFSGSGSGTEFALTINSLQPEDFGTYYCQQANSFPLTFGGGTRVEIK
class: yes (1)

binder: H2M730N (antibody, V domains shown) VH: EVQLVESGGGLVQPGGSLRLSCAASGFAFRSYWMTWVRQAPGKGLEWVANIQQDGNDKYYVDSVKGRFTISRDNAKNSLYLQMNSLRAEDTAVYYCARDTGIAEAGPFDYWGQGTLVTVSS VL: DIQMTQSPSTLSASVGDRVSITCRASQTIISWLAWYQQKPGKAPRLLIYKASSLESGVPSRFSGSGSGTEFTLTINSLQPDDFATYYCQQYNRYWTFGQGTKVEIK
class: no (0)

Task item: I'd appreciate it if you could say whether H1M724N (antibody, V domains shown) VH: QVQLVESGGGVVQPGRSLRLSCAASGFTLSNYGMHWVRQAPGKGLEWVAVIWHDGSNTYYADSVKGRFTISRDNSKNTLYLQMNSLRAEDTAVYYCTREGLDFWSGYYPNWFDPWGQGTLVTVSS VL: DIQMTQSPSSLSASVGDRVTITCRASQGIRNDLGWYQQKPGKAPKRLIYAASNLQGGVPSRFSGSGSGTEFTLTISSLQPEDFAAYYCLQHNIYPLTFGGGTKVEIK has T1/2 at least equal to 40 min.
Reply: no (0)

Task item: I'd appreciate it if you could say whether H1M732N (antibody, V domains shown) VH: EVQLVESGGGLVRPGGSLRLSCAASGFTFTNAWMSWVRQAPGKGLEWIGQIKSKTDGGTIDYAAPVKGRFTVSRDDSENTLFLQMNSLKTEDTAVYYCAGNWNYVDFDYWGQGTLVTVSS VL: DIQMTQSPSSLSASVGDRVTITCRASQDIRNDLGWYQQKPGKAPKRLIYAASSLQGGVPSRFSGSGSGTEFTLTISSLQPEDFATYYCLQHNSYPFTFGPGTKVDIK has T1/2 at least equal to 40 min.
Reply: no (0)

Task item: I'd appreciate it if you could say whether H1M728N (antibody, V domains shown) VH: EVQLVESGGDLVQPGGSLRLSCTASGFTFSKYWMTWVRQAPGRGLEWVANIKEDGNEKYFLDSVKGRFTISRDNAKDLLFLQMNSLRGEDTAVYYCVRDRGIEVAGPFDYWGQGTLVTVSS VL: DIQMTQSPSTLSASVGDRVTVTCRASQTIINWLAWYQQKPGKAPKLLISKASSLESGVPSRFSGSGSGTEFTLTISSLQPDDFATYYCQQYNRYWTFGQGTMVEIK has T1/2 at least equal to 40 min.
Reply: yes (1)
